target: PEX14 16-84, O75381
Sequence (O75381 16-84): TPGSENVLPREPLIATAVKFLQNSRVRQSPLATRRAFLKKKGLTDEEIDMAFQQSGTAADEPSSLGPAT
ASSAY READOUT: selected by phage display

As a guide, the following entries are already answered.
> print(dat)
                                binder         recorded.value
1   KLEHTWKALVHDGDTV [PIP5K1C, O60331]  confidence 3 (active)
2   WEEEFGREMRRQLWLE [FAM186B, Q8IYM0]  confidence 2 (active)
3  AWIRDYSSGGSSRTLD [TNKS1BP1, Q9C0C2]  confidence 2 (active)
4  SEQNKLGELWEEMALS [GPATCH2L, Q9NWQ4]  confidence 3 (active)

Give recorded selected by phage display. DMQLLWEKAVQQHQHG [SUGP1, Q8IWZ8] confidence 2 (active)

Check the records and state selected by phage display for GHPELSEAELQQLYAS [ZFHX4, Q86UP3] confidence 2 (active)

Identify measured selected by phage display associated with SATVPDQEELGEVWQR [HECW2, Q9P2P5] confidence 3 (active)

Identify the reported selected by phage display for the following entry. SSGGGSVTLDPLEHAW [SOWAHC, Q53LP3] confidence 3 (active)

Return the recorded selected by phage display value; entry: VLMESLKSIWSSSMMH [SMG7, Q92540] confidence 3 (active)

// fetch selected by phage display given entry EMGDWQEVWDENTGAY [FNBP4, Q8N3X1] confidence 3 (active)

Return reported selected by phage display. Input binder: AGSQAQELAEAWEGAR [RIMBP3, Q9UFD9] confidence 2 (active)

Output measured selected by phage display for this item: DAEERGEQALQDAWQK [KRT77, Q7Z794] confidence 2 (active)

Supply measured selected by phage display of HKLTEREWAEEWKHLN [CBFA2T3, O75081] in your reply. confidence 3 (active)

Supply measured selected by phage display of EWYEEHAREQEQQRQL [TPCN1, Q9ULQ1] in your reply. confidence 2 (active)

Supply measured selected by phage display of VHDAVVNDNLETIWLL [BCORL1, Q5H9F3] in your reply. confidence 3 (active)
